Endpoint summary: IC50, system: Stearoyl-CoA desaturase (Homo sapiens), multiple sources combined.
# if measured IC50 < 40 nM: 1 (yes)  # else: 0 (no)

Molecule | Tested On | Answer Label
O=C(O)Cn1nnc(-c2cc(N3CCC(C(=O)c4cc(Cl)ccc4Cl)CC3)no2)n1 | Stearoyl-CoA desaturase (Homo sapiens) | 1 (yes)
CCc1ccc(Cl)cc1C(=O)C1CCN(c2cc(-c3nnn(CC(=O)O)n3)on2)CC1 | Stearoyl-CoA desaturase (Homo sapiens) | 1 (yes)
O=C(O)Cn1nnc(-c2cnc(N3CCC(C(=O)c4cc(OC(F)(F)F)ccc4Cl)CC3)nc2)n1 | Stearoyl-CoA desaturase (Homo sapiens) | 1 (yes)
O=C(O)Cn1nnc(-c2cc(N3CCC(C(=O)c4cc(C(F)(F)F)ccc4Cl)CC3)no2)n1 | Stearoyl-CoA desaturase (Homo sapiens) | 1 (yes)
O=C(O)Cn1nnc(-c2cnc(N3CCN(c4cc(C(F)(F)F)cc(C(F)(F)F)c4)CC3)nc2)n1 | Stearoyl-CoA desaturase (Homo sapiens) | 0 (no)
Cc1cnnc(N2CCC(Oc3cc(F)ccc3Cl)CC2)n1 | Stearoyl-CoA desaturase (Homo sapiens) | 0 (no)

Identify whether the molecule O=C(O)Cn1nnc(-c2cnc(N3CCC4(CCN(c5ccccc5Cl)C4)C3)s2)n1 (stereo not drawn) records IC50 below 40 nM.
0 (no)

Identify whether the molecule `CS(=O)(=O)c1cnc2[nH]c(-c3ccc(-c4ccccc4F)cc3)nc2c1` records IC50 below 40 nM.
0 (no)

Identify whether the molecule `O=C(O)Cn1nnc(-c2cc(N3CCN(c4cc(F)ccc4Cl)CC3)no2)n1` records IC50 below 40 nM.
1 (yes)

Identify whether the molecule `O=C(O)Cn1nnc(-c2cc(N3CCC(C(=O)c4cc(Cl)ccc4Br)CC3)no2)n1` records IC50 below 40 nM.
1 (yes)

Identify whether the molecule O=C(O)Cn1nnc(-c2cc(N3CC4CN(c5cc(F)ccc5Cl)CC4C3)no2)n1 (stereo not drawn) records IC50 below 40 nM.
1 (yes)

Identify whether the molecule `Oc1cnc2nc(-c3cn(Cc4cc(Cl)c(Cl)c(Cl)c4)nn3)sc2n1` records IC50 below 40 nM.
0 (no)

Identify whether the molecule `O=C(O)Cn1nnc(-c2cnc(N3CCC4(C=C(c5ccc(OC(F)(F)F)cc5)c5ccccc5O4)CC3)s2)n1` records IC50 below 40 nM.
1 (yes)

Identify whether the molecule `O=C(O)Cn1nnc(-c2nnc(N3CCC4(CC3)CC(=O)c3ccccc3O4)s2)n1` records IC50 below 40 nM.
0 (no)

Identify whether the molecule `O=C(O)Cn1nnc(-c2cc(N3CCC(C(=O)c4cc(F)ccc4C4CC4)CC3)no2)n1` records IC50 below 40 nM.
1 (yes)

Identify whether the molecule `O=C(O)Cn1nnc(-c2cnc(N3CCC(C(=O)c4cc(Cl)ccc4Cl)CC3)nc2)n1` records IC50 below 40 nM.
0 (no)

Identify whether the molecule `O=C(O)Cn1nnc(-c2cnc(N3CCC4(CCc5c(Cl)cccc5O4)CC3)s2)n1` records IC50 below 40 nM.
1 (yes)

Identify whether the molecule `O=C(O)Cn1nnc(-c2cnc(N3CCN(c4cc(F)ccc4Cl)CC3)s2)n1` records IC50 below 40 nM.
1 (yes)

Identify whether the molecule `O=C(O)Cn1nnc(-c2cc(N3CCC(C(=O)c4cc(C(F)(F)F)ccc4C(F)(F)F)CC3)no2)n1` records IC50 below 40 nM.
1 (yes)

Identify whether the molecule `O=C(O)Cn1nnc(-c2cnc(N3CCC4(CCc5c(OC(F)(F)F)cccc5O4)CC3)s2)n1` records IC50 below 40 nM.
1 (yes)

Identify whether the molecule `O=C(O)Cn1nnc(-c2cnc(N3CCN(c4cc(C(F)(F)F)ccc4Cl)CC3)s2)n1` records IC50 below 40 nM.
1 (yes)

Identify whether the molecule O=C(O)Cn1nnc(-c2cnc(N3CC4CN(c5cc(F)ccc5Br)CC4C3)nc2)n1 (stereo not drawn) records IC50 below 40 nM.
0 (no)

Identify whether the molecule `CCCc1ccc(Cl)cc1C(=O)C1CCN(c2cc(-c3nnn(CC(=O)O)n3)on2)CC1` records IC50 below 40 nM.
1 (yes)

Identify whether the molecule `O=C(O)Cn1nnc(-c2cnc(N3CCC4(C=Cc5ccccc54)CC3)s2)n1` records IC50 below 40 nM.
0 (no)
